meta.source: the NIST ThermoML archive (doi:10.1016/j.jct.2011.11.025)

- Assay Comment: activity coefficient (dimensionless); of the first substance listed, at infinite dilution; xn = mol fraction of the nth substance listed
- Experimental Parameters: 348.15 K; Liquid; Chromatography; x1 = 0
Note to self: use TRUE only for activity coefficient readings below 2; a reading exactly at 2 still gets FALSE.

Record excerpt, results attached:
Compound	Category Label
CC(C)(C)O [2-methylpropan-2-ol] + CCCCCCn1cc[n+](C)c1.N#C[B-](C#N)(C#N)C#N	TRUE
Cc1ccc(C)cc1 [1,4-dimethylbenzene] + CCCCCCn1cc[n+](C)c1.N#C[B-](C#N)(C#N)C#N	TRUE
CCC(C)(C)OC [2-methoxy-2-methylbutane] + CCCCCCn1cc[n+](C)c1.N#C[B-](C#N)(C#N)C#N	FALSE
CC(C)OC(C)C [diisopropyl ether] + CCCCCCn1cc[n+](C)c1.N#C[B-](C#N)(C#N)C#N	FALSE

Q. Please indicate whether the reported activity coefficient of C=CCCCCC [1-heptene] + CCCCCCn1cc[n+](C)c1.N#C[B-](C#N)(C#N)C#N is strictly below 2.
A. FALSE

Q. Please indicate whether the reported activity coefficient of CCCCCCC [heptane] + CCCCCCn1cc[n+](C)c1.N#C[B-](C#N)(C#N)C#N is strictly below 2.
A. FALSE

Q. Please indicate whether the reported activity coefficient of CCCCCCCCC [nonane] + CCCCCCn1cc[n+](C)c1.N#C[B-](C#N)(C#N)C#N is strictly below 2.
A. FALSE

Q. Please indicate whether the reported activity coefficient of C=CCCCCCC [oct-1-ene] + CCCCCCn1cc[n+](C)c1.N#C[B-](C#N)(C#N)C#N is strictly below 2.
A. FALSE

Q. Please indicate whether the reported activity coefficient of c1ccsc1 [thiophene] + CCCCCCn1cc[n+](C)c1.N#C[B-](C#N)(C#N)C#N is strictly below 2.
A. TRUE

Q. Please indicate whether the reported activity coefficient of C1CCCCCCC1 [cyclooctane] + CCCCCCn1cc[n+](C)c1.N#C[B-](C#N)(C#N)C#N is strictly below 2.
A. FALSE

Q. Please indicate whether the reported activity coefficient of O [water] + CCCCCCn1cc[n+](C)c1.N#C[B-](C#N)(C#N)C#N is strictly below 2.
A. TRUE

Q. Please indicate whether the reported activity coefficient of CO [methanol] + CCCCCCn1cc[n+](C)c1.N#C[B-](C#N)(C#N)C#N is strictly below 2.
A. TRUE

Q. Please indicate whether the reported activity coefficient of CCOC(C)(C)C [2-ethoxy-2-methylpropane] + CCCCCCn1cc[n+](C)c1.N#C[B-](C#N)(C#N)C#N is strictly below 2.
A. FALSE

---

- Assay Comment: activity coefficient (dimensionless); of the first substance listed, at infinite dilution; xn = mol fraction of the nth substance listed
- Experimental Parameters: 368.15 K; Liquid; Chromatography; x1 = 0
Note to self: use met only for activity coefficient readings below 1; a reading exactly at 1 still gets not met.

Record excerpt, results attached:
Compound	Category Label
Cc1cccc(C)c1 [1,3-dimethylbenzene] + CCCCCCn1cc[n+](C)c1.N#C[B-](C#N)(C#N)C#N	not met
CC(C)O [propan-2-ol] + CCCCCCn1cc[n+](C)c1.N#C[B-](C#N)(C#N)C#N	met
C1CCCCC1 [cyclohexane] + CCCCCCn1cc[n+](C)c1.N#C[B-](C#N)(C#N)C#N	not met
CCOCC [diethyl ether] + CCCCCCn1cc[n+](C)c1.N#C[B-](C#N)(C#N)C#N	not met
C1=CCCCC1 [cyclohexene] + CCCCCCn1cc[n+](C)c1.N#C[B-](C#N)(C#N)C#N	not met

Q. Please indicate whether the reported activity coefficient of COC(C)(C)C [2-methoxy-2-methylpropane] + CCCCCCn1cc[n+](C)c1.N#C[B-](C#N)(C#N)C#N is strictly below 1.
A. not met

Q. Please indicate whether the reported activity coefficient of CC(C)OC(C)C [diisopropyl ether] + CCCCCCn1cc[n+](C)c1.N#C[B-](C#N)(C#N)C#N is strictly below 1.
A. not met

Q. Please indicate whether the reported activity coefficient of Cc1ccc(C)cc1 [1,4-dimethylbenzene] + CCCCCCn1cc[n+](C)c1.N#C[B-](C#N)(C#N)C#N is strictly below 1.
A. not met
